Values were extracted from PubChem BioAssay AID248.

Could you please report measured T/C for the items listed next?
- Test system: L1210 leukemia ip in BDF1 mice, survival T/C
- method.notes: NCI In Vivo Anticancer Drug Screen. Data for tumor model L1210 Leukemia (intraperitoneal) in B6D2F1 (BDF1) mice
- assay.conditions: endpoint: mean survival time; dose: 200.0 mg/kg/injection; schedule: Q04DX002 (ip); vehicle: saline with Tween-80; higher = longer survival
Toxic doses and inconclusive results are not listed.

Look over these answered cases.
molecule: CC1CS(=O)(=O)O1 (stereo not drawn)
T/C: 105 % of control
--
molecule: CC(C)(C)NC(=O)C(Br)c1ccccc1 (stereo not drawn)
T/C: 105 % of control
--
molecule: Cc1ccc(NC(=O)N(C)CCC#N)cc1
T/C: 94 % of control
--
molecule: Cc1ccc(SSSc2ccc(C)cc2[N+](=O)[O-])c([N+](=O)[O-])c1
T/C: 98 % of control
--
molecule: CC(C)=CCCC(C)CCOC(N)=O (stereo not drawn)
T/C: 111 % of control

Need T/C for each of these molecules.
1. CCCS(=O)(=O)N(CC)CC
2. COC1OC(COC(c2ccccc2)(c2ccccc2)c2ccccc2)C(OS(=O)(=O)c2ccc(C)cc2)C(OC(=O)c2ccccc2)C1OC(=O)c1ccccc1 (stereo not drawn)
3. O=C(O)CC(NC(=O)OCc1ccccc1)c1ccccc1 (stereo not drawn)
4. Cc1ccc(C(O)C(=O)O)c(C)c1 (stereo not drawn)
5. ClC1(Cl)C2/C=C/CCCCC21 (stereo not drawn)

1: 101 % of control; 2: 97 % of control; 3: 95 % of control; 4: 89 % of control; 5: 113 % of control

Need T/C for each of these molecules.
1. CCC(F)C(Br)C(=O)O (stereo not drawn)
2. CCOC(=O)C1CCCCC1O (stereo not drawn)
3. Nc1ccc2c(c1)CCC2=O

["93 % of control", "97 % of control", "102 % of control"]
